B1: LINE1-full (parent)
chain: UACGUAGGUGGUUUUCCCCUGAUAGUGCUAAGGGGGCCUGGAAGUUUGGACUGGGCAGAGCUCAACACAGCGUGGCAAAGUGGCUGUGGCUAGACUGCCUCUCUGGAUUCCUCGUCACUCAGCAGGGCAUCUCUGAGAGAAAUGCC

Variants of: B1
Test: self-cleavage, relative activity (ratio to wild type); higher = more cleavage; in vitro, sequencing; the parent is a self-cleaving ribozyme
Classify by self-cleavage. Ranges: low (below 0.5), middle (0.5 to below 1), high (1 or more)

Example entries and their recorded answers appear below.
seq	label
UACGUAGGUGGUUUUCCCAUGAUAGUGCUAAGGGGGCCUGGAAGUUUGGACUGGGCAGAGCUCAACACAGCGUGGCAAAGUGGCUGUGGCUAGACUGCCUCUCUGGAUUCCUCGUCACUCAGCAGGGCAUCUCUGUGAGAAAUGCC [C19A A136U]	middle
UGCGUAGGUGGUUUUCCCCUGAUAGUGCUAAGGGGGCCUGGAAGUUUGGACUGGGCAGAGCUCAACACAGCGUGGCAAAGUGGCUGUGGCUAGCCUGCCUCUCUGGAUUCCUCGUCACUCAGCAGGGCAUCUCUGAGAGAAAUGCC [A2G A94C]	low
UACGUAGGUGGUUUUCCCCUGAUAGUGCUAAGGGGGCCUGGAAGUUUGGACUGGGCAGAGCUCAACACAGCGCGGCAAAGUGGCUGUGGCUAGACUGCCCCUCUGGAUUCCUCGUCACUCAGCAGGGCAUCUCUGAGAGAAAUGCC [U73C U100C]	high
UACGUAGGUGGUUUUCCCCUGAUAGUGCUAAGGGGACCUGGAAGUUUGGACUGGGCAGAGCUCAACACAGCGUGGCAAAGUGGUUGUGGCUAGACUGCCUCUCUGGAUUCCUCGUCACUCAGCAGGGCAUCUCUGAGAGAAAUGCC [G36A C84U]	low
UACGUAGGUGGUUUUCCCCUGAUAGUGCUAAGGGGGCCUGGAAGUUUGGACUGGGCAGAGCUCAACACAGCGUGGCAAAGCGGCUGUGGUUAGACUGCCUCUCUGGAUUCCUCGUCACUCAGCAGGGCAUCUCUGAGAGAAAUGCC [U81C C90U]	low

Q. Pick a category. Item: UACGUAGGUGGUUCUCCCCUGAUAGUGCUAAGGGGGCCUGGAAGUUUGGACUGGGCAGAGCUCAACACAGCGUGGCAAAGUGGCUGUGGCGAGACUGCCUCUCUGGAUUCCUCGUCACUCAGCAGGGCAUCUCUGAGAGAAAUGCC [U14C U91G]
A. low

Q. Which category does the recorded self-cleavage put UACGUAGGUGGUUUUCCCCUGAUAGUGCUAAGGGGGCCUGGAAGUUUGGACUGGGCAGAGCUCGACACAGCGUGGCAGAGUGGCUGUGGCUAGACUGCCUCUCUGGAUUCCUCGUCACUCAGCAGGGCAUCUCUGAGAGAAAUGCC [A64G A78G] in?
A. low

Q. Exercise: read the entry UACGUAGGUGGCUUUCCCCUGAUAGUGCUAAGGGGGCCUGGAAGUUUGGACUGGGCAGAGCUCAACACAGCGUGGCAAAGUGGCUGUGGCUAGACUACCUCUCUGGAUUCCUCGUCACUCAGCAGGGCAUCUCUGAGAGAAAUGCC [U12C G97A] and state which class it falls under.
A. low
